Data provenance is BindingDB's records for doi:10.1016/j.ejmech.2014.06.070.

TEST_PROTOCOL: Inhibition of Dynamin 1 in serum-starved human U2OS cells assessed as inhibition of clathrin-mediated […]-cojugated transferrin uptake pretreated for 30 mins by high-content imaging method
MEASUREMENT_TYPE: IC50

| ITEM_SMILES | MEASUREMENT_TYPE | OBS_VALUE |
| --- | --- | --- |
| O=C1C=C(Nc2cccc(C(=O)O)c2)C(=O)C=C1Nc1cccc(C(=O)O)c1 | IC50 | > 300 µM |
| O=C1C=C(Nc2ccc(O)cc2)C(=O)C=C1Nc1ccc(O)cc1 | IC50 | 36 µM |
| O=C1C=C(NCc2ccccc2)C(=O)C=C1NCc1ccccc1 | IC50 | 120 µM |
| O=C1C=C(Nc2ccc(C(=O)O)cc2)C(=O)C=C1Nc1ccc(C(=O)O)cc1 | IC50 | 200 µM |
| O=C1C=C(Nc2ccccc2C(=O)O)C(=O)C=C1Nc1ccccc1C(=O)O | IC50 | 162 µM |
